assayed target: T1, Human BCMA (human, UniProt Q02223 1-54, limits assumed)
T1 construct: also called huBCMA; B-cell maturation antigen
T1 sequence (looked up): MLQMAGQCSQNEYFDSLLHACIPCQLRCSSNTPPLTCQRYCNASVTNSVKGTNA
assay overview: SPR, IgG immobilised, human BCMA analyte
reported metric: Kd (nM)
Output spec: scalar in nM, unitless text.

Enquiry: Fill in: Kd of COMBO_Rd4_6nM_C11 (antibody, V domains shown, IgG) VH: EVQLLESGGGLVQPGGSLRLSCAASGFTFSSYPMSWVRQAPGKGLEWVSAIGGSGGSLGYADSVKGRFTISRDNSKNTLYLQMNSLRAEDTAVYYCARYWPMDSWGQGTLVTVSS VL: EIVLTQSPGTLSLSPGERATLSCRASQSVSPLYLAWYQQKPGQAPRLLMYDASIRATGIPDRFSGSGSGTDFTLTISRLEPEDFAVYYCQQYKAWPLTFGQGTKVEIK is ___
Return: 0.018
